- Target system: FAAH (Homo sapiens, UniProt O00519)
- Sequence (O00519 1-579): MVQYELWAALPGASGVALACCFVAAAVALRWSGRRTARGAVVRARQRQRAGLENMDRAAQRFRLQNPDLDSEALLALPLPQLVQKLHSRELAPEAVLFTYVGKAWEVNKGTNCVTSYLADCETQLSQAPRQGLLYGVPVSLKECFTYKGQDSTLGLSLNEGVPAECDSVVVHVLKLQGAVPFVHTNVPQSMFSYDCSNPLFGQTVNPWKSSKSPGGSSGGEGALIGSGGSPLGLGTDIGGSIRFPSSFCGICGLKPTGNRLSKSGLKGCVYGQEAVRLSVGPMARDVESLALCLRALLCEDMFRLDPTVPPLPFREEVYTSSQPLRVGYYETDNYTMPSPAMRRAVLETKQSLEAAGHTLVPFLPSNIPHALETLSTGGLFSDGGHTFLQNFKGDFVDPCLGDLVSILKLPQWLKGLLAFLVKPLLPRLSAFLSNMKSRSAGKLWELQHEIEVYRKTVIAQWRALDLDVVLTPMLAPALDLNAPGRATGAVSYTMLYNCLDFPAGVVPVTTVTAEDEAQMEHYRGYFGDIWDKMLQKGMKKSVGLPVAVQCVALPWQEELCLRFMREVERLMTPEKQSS
- Assay overview: Assay Method 1: FAAH assay, 3H-anandamide hydrolysis in homogenate of T84 cells or SK-N-MC cells transfected with human FAAH
Counter-ions that a name gives are not always drawn.
Property: IC50 (nM)
Give the number; nM is assumed, so skip it.

// known answers, use as guide
CN(C)S(=O)(=O)c1ccc(-c2cc(NC[C@H](O)c3ccccc3)ncn2)cc1 = 14
O[C@@H](CNc1cc(-c2cc(F)cc(C(F)(F)F)c2)ncn1)c1ccccc1 [Example 42, trifluoroacetic acid salt] = 206
Nc1nc(NC[C@H](O)c2ccccc2)cc(-c2ccc(C(F)(F)F)c(Cl)c2)n1 [Example 61, trifluoroacetic acid salt] = 6

Continue with the next compound.
Returns the measured IC50 for the input compound. Input: "O=S(=O)(NC1CC1)c1ccc(-c2cc(NC[C@H](O)c3ccccc3)ncn2)cc1"
20
